Below is a list of entries, each paired with its recorded pKi value.
# target or system: E. coli LpxC C63A (Escherichia coli, UniProt P0A725, C63A)
# Sequence (P0A725 whole entry C63A): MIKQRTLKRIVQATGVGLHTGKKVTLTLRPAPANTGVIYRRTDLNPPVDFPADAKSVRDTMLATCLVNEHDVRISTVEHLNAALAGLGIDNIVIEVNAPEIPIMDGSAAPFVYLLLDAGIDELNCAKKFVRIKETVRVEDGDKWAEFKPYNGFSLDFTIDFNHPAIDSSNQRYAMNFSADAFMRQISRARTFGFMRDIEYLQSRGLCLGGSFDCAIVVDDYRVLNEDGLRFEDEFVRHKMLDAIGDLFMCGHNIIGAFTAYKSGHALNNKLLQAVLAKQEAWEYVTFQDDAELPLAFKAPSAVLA
# protocol summary: fluorescence-based E. coli LpxC C63A enzyme inhibition assay
# condition description: Ki E. coli LpxC C63A, from IC50 via Cheng–Prusoff
pKi: −log10 of the molar value.

Worked examples, 2 molecules total:
                                   molecule                          target_or_system  observed_property  observed_measurement
0  O=C(NC[C@@H](OCc1ccc(C#Cc2ccc(CN3CCOCC3)cc2)cc1)C(=O)NO)c1ccc(Oc2ccccc2)cc1 [(R)-13d]  E. coli LpxC C63A (Escherichia coli, UniProt P0A725, C63A)                pKi                < 5.60
1  O=C(NC[C@@H](OCc1ccc(C#Cc2ccc(CN3CCOCC3)cc2)cc1)C(=O)NO)c1ccc2ccccc2n1 [(R)-13e]  E. coli LpxC C63A (Escherichia coli, UniProt P0A725, C63A)                pKi                < 5.60

Turning to the following molecule.
// sample O=C(NC[C@@H](OCc1ccc(C#Cc2ccc(CN3CCOCC3)cc2)cc1)C(=O)NO)c1cnc2ccccc2c1 [(R)-13f] , its pKi was < 5.60
